Assay: amyloid nucleation score (Sup35N fusion, yeast selection) (log enrichment); library NNK3; higher = more nucleation; inactive = no reads after selection;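 note: zero at mode of non-aggregating sequences after 7 days selection at 30°C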
measured.parameter: amyloid nucleation score

Observe how each entry below is paired with its result.
substance: SFQFMFSRSSNRDFCILIQR
amyloid nucleation score: inactive
//
substance: CAWVDRYYKKVIGANRGSLS
amyloid nucleation score: inactive
//
substance: HSYTVWLVNMS
amyloid nucleation score: 2.35
//
substance: CSEVFTSNWAYETASNCKRV
amyloid nucleation score: 1.08
//
substance: CLYNGMWSCVEWNSKGSMHL
amyloid nucleation score: 1.26

Next item in the queue.
Using the record for WVGLVPYPMVAQEVFNHQD , report its amyloid nucleation score.
inactive

====

Experiment: amyloid nucleation score (Sup35N fusion, yeast selection) (log enrichment); library NNK3; higher = more nucleation; inactive = no reads after selection
measured.parameter: amyloid nucleation score

Observe how each entry below is paired with its result.
macromolecule.sequence: HSRTGLGLHKLRMAVGFCIN
amyloid nucleation score: inactive

macromolecule.sequence: SILLVFHFKANVCLVFT
amyloid nucleation score: inactive

macromolecule.sequence: PGRMRVVTVMKMWLTALSLK
amyloid nucleation score: inactive

macromolecule.sequence: ATGVMLNDDS
amyloid nucleation score: inactive

macromolecule.sequence: GCLDQFGCGGTPVKVFATNV
amyloid nucleation score: -1.39

macromolecule.sequence: YGCCVSGMYVALGLQ
amyloid nucleation score: 2.8

macromolecule.sequence: RRDSDIDRALSLGYASRTTK
amyloid nucleation score: inactive

macromolecule.sequence: STQNGYRQNEFSRSRMMAPD
amyloid nucleation score: inactive

macromolecule.sequence: NRGSYVFMNRSEPVCSWISK
amyloid nucleation score: 1.09

macromolecule.sequence: YRYLVFLRLNLSLRILFGFK
amyloid nucleation score: inactive

Using the record for FVFRHYSRPDIFQDGKKSAN , report its amyloid nucleation score.
1.08

Using the record for RSQWLFISKKFDLAIYIAV , report its amyloid nucleation score.
inactive

Using the record for GACRCNCSSSDDPQNKRNML , report its amyloid nucleation score.
inactive

====

Assay: amyloid nucleation score (Sup35N fusion, yeast selection) (log enrichment); library NNK1; higher = more nucleation; inactive = no reads after selection
measured.parameter: amyloid nucleation score

Observe how each entry below is paired with its result.
substance: DVSRQFYFDYYNIKGLNITK
amyloid nucleation score: 0.536

substance: FGLTCRLHKAVFRFYNKRTS
amyloid nucleation score: inactive

substance: IIRLVQNRSIMSFAMGISWV
amyloid nucleation score: 2.4

substance: LCMLWLKVKRHRDMRSIGIW
amyloid nucleation score: -0.003

Using the record for NSCRTRLVTRGCSTVPNMWM , report its amyloid nucleation score.
-0.17

====

The following substances are shown together with reported amyloid nucleation score values.
Assay: amyloid nucleation score (Sup35N fusion, yeast selection) (log enrichment); library NNK1; higher = more nucleation; inactive = no reads after selection
Give only the figure.

Observe how each entry below is paired with its result.
substance: DYTLMRSLESPITDLQSSSG
amyloid nucleation score: 0.748
//
substance: RLDSPDVVSAFCEAALASAS
amyloid nucleation score: 0.136
//
substance: PGLLMNRVPVSSTQYIYLEQ
amyloid nucleation score: 0.029
//
substance: FSKTAGEVAYSLTESTDVRS
amyloid nucleation score: -1.26
//
substance: EGIIYS
amyloid nucleation score: -0.692
//
substance: CIGRCMWI
amyloid nucleation score: 1.81

Using the record for IVNRHEL , report its amyloid nucleation score.
0.63

Using the record for ILREQNSLDTSRFYRGRSLV , report its amyloid nucleation score.
0.187

Using the record for SLLTWFREYVDYTLYQWPGY , report its amyloid nucleation score.
-0.131

Using the record for VTACYYSISFCVRGAMYGYV , report its amyloid nucleation score.
1.38

Using the record for ARRGHKK , report its amyloid nucleation score.
1.32

Using the record for TERFMYFKNLFVSSWTSHG , report its amyloid nucleation score.
1.51

Using the record for KLSGFKFEVTCDGHEFWGHP , report its amyloid nucleation score.
1.08

====

Assay: amyloid nucleation score (Sup35N fusion, yeast selection) (log enrichment); library NNK1; higher = more nucleation; inactive = no reads after selection
The following substances are shown together with reported amyloid nucleation score values.
Give only the figure.

substance: SDCVVVGHGVVRIYMDGVWP
observed: 5.84
//
substance: ATWTAWRHVAHFWPWAHAKS
observed: 0.936
//
substance: AFNRSKQSIKAFSA
observed: -0.369
//
substance: RWCVVSEKTFCINYTRLSFA
observed: 0.888
//
substance: LRREVINWDQRFSFLKSFTW
observed: 2.89

Next item in the queue.
Using the record for SCWPCQ , report its amyloid nucleation score.
-1.09

====

The following sequences are shown together with reported amyloid nucleation score values.
Assay: amyloid nucleation score (Sup35N fusion, yeast selection) (log enrichment); library NNK1; higher = more nucleation; inactive = no reads after selection
Give only the figure.

Observe how each entry below is paired with its result.
macromolecule.sequence: FNFMFAKDGGSDTFLRFDRV
amyloid nucleation score: 4.83
--
macromolecule.sequence: SILQFALLMNSRDLVHRGYF
amyloid nucleation score: 3.38
--
macromolecule.sequence: WLESRQPAEESVVVWNERVG
amyloid nucleation score: -0.831
--
macromolecule.sequence: PFNFIPFAYRLYRKTYRTSH
amyloid nucleation score: 0.165

Using the record for EVRSSFYPSHYYRALRDL , report its amyloid nucleation score.
-1.37

====

Assay: amyloid nucleation score (Sup35N fusion, yeast selection) (log enrichment); library NNK3; higher = more nucleation; inactive = no reads after selection
measured.parameter: amyloid nucleation score

Observe how each entry below is paired with its result.
substance: RELTRRTYAVANYRLSMSRL
observed: inactive

substance: LHLHFAIKKLGLRLSTKWWV
observed: inactive

substance: LLTNLCIQYISSTLYYDRLF
observed: inactive

substance: LISLPVG
observed: -0.254

substance: VIRPFVYGDNLVSSTTAMIF
observed: inactive

substance: MSMRLRIYKFFEICANSMMP
observed: inactive

Next item in the queue.
Using the record for MYGHIYHFRINTLWGVNL , report its amyloid nucleation score.
inactive

====

Assay: amyloid nucleation score (Sup35N fusion, yeast selection) (log enrichment); library NNK1; higher = more nucleation; inactive = no reads after selection
The following substances are shown together with reported amyloid nucleation score values.
Give only the figure.

Observe how each entry below is paired with its result.
substance: HIMRDV
amyloid nucleation score: -1.13
//
substance: IMDSSMGGSSKMYKVVANDL
amyloid nucleation score: 0.311
//
substance: HVMIFVIFPENYNICTFMKY
amyloid nucleation score: 2.29
//
substance: SPIMEKACVD
amyloid nucleation score: -0.053
//
substance: ECFSKFLNLRGSPLG
amyloid nucleation score: -0.098
//
substance: YPQMLVSVLRFMYY
amyloid nucleation score: 0.009

Using the record for WWLLSLP , report its amyloid nucleation score.
0.196

Using the record for TNIALLV , report its amyloid nucleation score.
0.847

Using the record for LGTCPYSPPEANN , report its amyloid nucleation score.
-0.604

Using the record for SLYAQVCWRSVEFYPRLFPE , report its amyloid nucleation score.
2.26

====

Assay: amyloid nucleation score (Sup35N fusion, yeast selection) (log enrichment); library NNK1; higher = more nucleation; inactive = no reads after selection
measured.parameter: amyloid nucleation score

Observe how each entry below is paired with its result.
substance: VVMEMINFHPSTLCSILQ
measured.parameter: amyloid nucleation score
observed: 5.07
--
substance: RTLMRLN
measured.parameter: amyloid nucleation score
observed: -0.762
--
substance: CLFDHKFMRIALHL
measured.parameter: amyloid nucleation score
observed: inactive
--
substance: GVFSSQDTRAIDLCSGVYVM
measured.parameter: amyloid nucleation score
observed: 0.003
--
substance: QTRRVVHSGN
measured.parameter: amyloid nucleation score
observed: 0.284
--
substance: HIPYVYGPIIRGEATYTEGV
measured.parameter: amyloid nucleation score
observed: -0.29
--
substance: ILKSFLD
measured.parameter: amyloid nucleation score
observed: -0.071
--
substance: NALASLKVMILDPTMELCCA
measured.parameter: amyloid nucleation score
observed: 0.996
--
substance: GCGMDGWDVQ
measured.parameter: amyloid nucleation score
observed: 0.103
--
substance: FMHAGIYL
measured.parameter: amyloid nucleation score
observed: 0.043

Using the record for QTVGKVDVVDCLVLVVRLTI , report its amyloid nucleation score.
-0.003

Using the record for GTYLAFYSLSLCRYTKCLER , report its amyloid nucleation score.
-0.22

Using the record for FSGCGWYRTVDYGGP , report its amyloid nucleation score.
inactive

====

Experiment: amyloid nucleation score (Sup35N fusion, yeast selection) (log enrichment); library NNK2; higher = more nucleation; inactive = no reads after selection
# amyloid nucleation score >= 0.2 gives Satisfied, anything below gives Not satisfied

substance: EKVNLSTSCRVA
qualitative.label: Satisfied
--
substance: NNFWFKLQIM
qualitative.label: Satisfied
--
substance: NDRRRRGCRWMVAALVSSVL
qualitative.label: Satisfied
--
substance: RWTLWFEGRLERLVAIIS
qualitative.label: Not satisfied

Determine whether this substance has amyloid nucleation score no lower than 0.2: LVSKSERER
Satisfied

Determine whether this substance has amyloid nucleation score no lower than 0.2: LHNMNWPLFVLVACLVDIPT
Not satisfied

Determine whether this substance has amyloid nucleation score no lower than 0.2: ARFILFVALFWKFLY
Satisfied

Determine whether this substance has amyloid nucleation score no lower than 0.2: ESRHSSLFHHPE
Not satisfied
